- PROTOCOL_DESCRIPTION: Cmax in po dosed CD1 mouse
- Assay type: ADME, organism-based
- Design: route oral
- ASSAY_SETUP: in vivo
MEASUREMENT_NAME: Cmax (ng/mL)
Numbers only here, please. The scale is ng/mL.

get_value(item= CCCC(CCC)C(=O)Nc1ccn([C@@H]2O[C@H](CO)[C@@H](O)C2(F)F)c(=O)n1 [LY-2334737] , readout=Cmax) returns 535

---

- PROTOCOL_DESCRIPTION: Chemical stability in buffer solution assessed as hydrolysis at pH 4 after 4 hrs at 40 degC
- Assay type: physicochemical
- ASSAY_SETUP: read-out: solubility
MEASUREMENT_NAME: degraded at 4 h
State the value, then name its unit.

What the record says about CCCC(CCC)C(=O)Nc1ccn([C@@H]2O[C@H](CO)[C@@H](O)C2(F)F)c(=O)n1 : degraded at 4 h is 2%

---

- PROTOCOL_DESCRIPTION: Chemical stability in buffer solution assessed as hydrolysis at pH 2 after 4 hrs at 40 degC
- Format: physicochemical
- ASSAY_SETUP: read-out: solubility
MEASUREMENT_NAME: degraded at 4 h (%)
Quick reminder: number only, in %, skip the unit.

Entry CCCC(CCC)C(=O)Nc1ccn([C@@H]2O[C@H](CO)[C@@H](O)C2(F)F)c(=O)n1 [LY-2334737] , degraded at 4 h reported as 12

---

- PROTOCOL_DESCRIPTION: Stability in human Caco-2 cell homogenate assessed as half life
- Type: ADME, Colon
MEASUREMENT_NAME: half-life (h)
Enter your answer as a number in h; do not include the unit.

half-life for CC[C@H](C)[C@H](N)C(=O)OC[C@H]1O[C@@H](n2ccc(N)nc2=O)C(F)(F)[C@@H]1O is 1.25

---

- PROTOCOL_DESCRIPTION: Tmax in po dosed CD1 mouse
- Type: ADME, organism-based
- ASSAY_SETUP: in vivo
MEASUREMENT_NAME: Tmax (min)
// units = min; emit number, no label

Consider CCCC(CCC)C(=O)Nc1ccn([C@@H]2O[C@H](CO)[C@@H](O)C2(F)F)c(=O)n1 . Its measured Tmax is 30

---

- PROTOCOL_DESCRIPTION: AUC in po dosed CD1 mouse
- Assay type: ADME, organism-based
- ASSAY_SETUP: plasma
MEASUREMENT_NAME: AUC (ng·h/mL)
Value expressed in ng·h/mL; do not type the unit.

# AUC (molecule: CCCC(CCC)C(=O)Nc1ccn([C@@H]2O[C@H](CO)[C@@H](O)C2(F)F)c(=O)n1 ) is 536

---

- PROTOCOL_DESCRIPTION: Chemical stability in buffer solution assessed as hydrolysis at pH 1 after 4 hrs at 40 degC
- Format: physicochemical
- ASSAY_SETUP: read-out: solubility
MEASUREMENT_NAME: degraded at 4 h

Measured degraded at 4 h, CCCC(CCC)C(=O)Nc1ccn([C@@H]2O[C@H](CO)[C@@H](O)C2(F)F)c(=O)n1 : 21%
